Assay: in vitro
Settings: Vero E6 cells

Compound	CC50
CN[C@H]1C(=O)N[C@@H]2Cc3ccc(cc3)Oc3cc4cc(c3O[C@@H]3O[C@H](C(=O)O)[C@@H](O)[C@H](O)[C@H]3NC(=O)CCCCCCCCC(C)C)Oc3ccc(cc3Cl)[C@@H](O)[C@@H]3NC(=O)[C@H](NC(=O)[C@@H]4NC(=O)[C@@H](NC2=O)c2cc(cc(O)c2Cl)Oc2cc1ccc2O)c1ccc(O)c(c1)-c1c(O[C@H]2O[C@H](CO)[C@@H](O)[C@H](O)[C@@H]2O)cc(O)cc1[C@@H](C(=O)NCCCN(C)C)NC3=O [dalbavancin]	> 3.2 µM
